Source of measurements: ChEMBL document CHEMBL1140066

These records show Ki for Prothrombin (Homo sapiens, UniProt P00734).

Previously resolved entries follow.
compound | result
CN1C(=O)C(OCc2ccc(C(=N)N)cc2)Oc2cc(C(=O)N[C@@H](CC(=O)O)c3ccccc3)ccc21 (some centres not stated) | 14.9 µM
CCOC(=O)CCC(=O)N(Cc1ccccc1)c1ccc2c(c1)OC(C)(COc1ccc(C(=N)N)cc1)CN2C (configuration not stated) | 0.06 µM
CCOC(=O)C(C(=O)Nc1ccc2c(c1)OC(OCc1ccc(C(=N)N)cc1)C(=O)N2C)c1ccccc1 (configuration not stated) | 9.89 µM

Please list Ki recorded for the compound CCOC(=O)CCC(=O)N(Cc1ccccn1)c1ccc2c(c1)OC(C)(COc1ccc(C(=N)N)cc1)CN2C (configuration not stated)
0.025 µM

Please list Ki recorded for the compound CCOC(=O)CN(C(=O)c1ccc2c(c1)OC(OCc1ccc(C(=N)N)cc1)C(=O)N2C)c1ccccc1 (configuration not stated)
3.98 µM

Please list Ki recorded for the compound CCOC(=O)CN(Cc1ccccc1)c1ccc2c(c1)OC(C)(COc1ccc(C(=N)N)cc1)CN2C (configuration not stated)
0.38 µM

Please list Ki recorded for the compound CN1C(=O)C(OCc2ccc(C(=N)N)cc2)Oc2cc(C(=O)NCCC(=O)O)ccc21 (configuration not stated)
118 µM

====

# Tested on: Platelet
# measurement-description: Inhibition of ADP-induced platelet aggregation in human platelet rich plasma at 50 uM
# Type: functional
// values below are reported inhibition at 50 µM
Please respond with the number in % and leave the unit unwritten.

Previously resolved entries follow.
molecule | target | inhibition at 50 µM (%)
CN1C(=O)C(OCc2ccc(C(=N)N)cc2)Oc2cc(C(=O)N(CC(=O)O)c3ccccc3)ccc21 (stereo not drawn) | Platelet | 24
CCOC(=O)C(Cc1ccccc1)C(=O)Nc1ccc2c(c1)N(C)CC(C)(COc1ccc(C(=N)N)cc1)O2 (stereo not drawn) | Platelet | 8
CN1C(=O)C(OCc2ccc(C(=N)N)cc2)Oc2cc(C(=O)NCCC(=O)O)ccc21 (stereo not drawn) | Platelet | 23
COC(=O)C(Cc1ccccc1)C(=O)Nc1ccc2c(c1)OC(C)(COc1ccc(C(=N)N)cc1)CN2C (stereo not drawn) | Platelet | 21
CN1CC(C)(COc2ccc(C(=N)N)cc2)Oc2cc(N(Cc3ccccc3)C(=O)CCC(=O)O)ccc21 (stereo not drawn) | Platelet | 14

Please list inhibition at 50 µM recorded for the molecule CCOC(=O)CCC(=O)N(Cc1ccccn1)c1ccc2c(c1)OC(C)(COc1ccc(C(=N)N)cc1)CN2C (stereo not drawn)
15

Please list inhibition at 50 µM recorded for the molecule CCOC(=O)C(C(=O)Nc1ccc2c(c1)OC(OCc1ccc(C(=N)N)cc1)C(=O)N2C)c1ccccc1 (stereo not drawn)
23

Please list inhibition at 50 µM recorded for the molecule CCOC(=O)CN(C(=O)c1ccc2c(c1)OC(OCc1ccc(C(=N)N)cc1)C(=O)N2C)c1ccccc1 (stereo not drawn)
10

====

These records show pKi for Coagulation factor X (Homo sapiens, UniProt P00742).
By convention, pKi is the negative base-10 log of a molar concentration.

Specify the recorded pKi for CCOC(=O)CCC(=O)Nc1ccc2c(c1)OC(C)(COc1ccc(C(=N)N)cc1)CN2C (stereo unspecified) , system: Coagulation factor X (Homo sapiens, UniProt P00742).
Sequence (P00742 41-179 limits assumed): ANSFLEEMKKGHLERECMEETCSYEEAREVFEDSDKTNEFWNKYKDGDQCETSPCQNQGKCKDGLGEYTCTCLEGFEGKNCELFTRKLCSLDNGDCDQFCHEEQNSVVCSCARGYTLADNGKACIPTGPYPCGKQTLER
Sequence (P00742 235-488 limits assumed): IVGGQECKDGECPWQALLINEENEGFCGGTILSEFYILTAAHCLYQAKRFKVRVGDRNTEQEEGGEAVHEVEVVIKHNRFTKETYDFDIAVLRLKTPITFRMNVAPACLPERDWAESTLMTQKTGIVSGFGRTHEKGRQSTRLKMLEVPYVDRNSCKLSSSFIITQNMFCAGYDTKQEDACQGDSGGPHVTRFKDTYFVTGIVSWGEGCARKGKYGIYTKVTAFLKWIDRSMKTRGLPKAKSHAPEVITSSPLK
4.13

Specify the recorded pKi for CN1C(=O)C(OCc2ccc(C(=N)N)cc2)Oc2cc(C(=O)N(CC(=O)O)c3ccccc3)ccc21 (stereo unspecified) , system: Coagulation factor X (Homo sapiens, UniProt P00742).
4.30

Specify the recorded pKi for CN1CC(C)(COc2ccc(C(=N)N)cc2)Oc2cc(N(Cc3ccccc3)C(=O)CCC(=O)O)ccc21 (stereo unspecified) , system: Coagulation factor X (Homo sapiens, UniProt P00742).
4.53

Specify the recorded pKi for CCOC(=O)CCC(=O)N(Cc1ccccn1)c1ccc2c(c1)OC(C)(COc1ccc(C(=N)N)cc1)CN2C (stereo unspecified) , system: Coagulation factor X (Homo sapiens, UniProt P00742).
4.93

Specify the recorded pKi for CCOC(=O)CCC(=O)N(Cc1ccccc1)c1ccc2c(c1)OC(C)(COc1ccc(C(=N)N)cc1)CN2C (stereo unspecified) , system: Coagulation factor X (Homo sapiens, UniProt P00742).
4.74

Specify the recorded pKi for CN1CC(C)(COc2ccc(C(=N)N)cc2)Oc2cc(NC(=O)CCC(=O)O)ccc21 (stereo unspecified) , system: Coagulation factor X (Homo sapiens, UniProt P00742).
4.47

Specify the recorded pKi for CCOC(=O)C(=O)N(Cc1ccccc1)c1ccc2c(c1)OC(C)(COc1ccc(C(=N)N)cc1)CN2C (stereo unspecified) , system: Coagulation factor X (Homo sapiens, UniProt P00742).
3.95

Specify the recorded pKi for CCOC(=O)C(=O)N(Cc1ccccc1)c1ccc2c(c1)N(C)CC(C)(COc1ccc(C(=N)N)cc1)O2 (stereo unspecified) , system: Coagulation factor X (Homo sapiens, UniProt P00742).
4.80

Specify the recorded pKi for CN1CC(C)(COc2ccc(C(=N)N)cc2)Oc2ccc(N(Cc3ccccc3)C(=O)C(=O)O)cc21 (stereo unspecified) , system: Coagulation factor X (Homo sapiens, UniProt P00742).
4.50

Specify the recorded pKi for CCOC(=O)CN(Cc1ccccc1)c1ccc2c(c1)OC(C)(COc1ccc(C(=N)N)cc1)CN2C (stereo unspecified) , system: Coagulation factor X (Homo sapiens, UniProt P00742).
5.57

Specify the recorded pKi for CCOC(=O)CN(Cc1ccccc1)c1ccc2c(c1)N(C)CC(C)(COc1ccc(C(=N)N)cc1)O2 (stereo unspecified) , system: Coagulation factor X (Homo sapiens, UniProt P00742).
4.92
